Tested on: SNB-19 CNS
Test: NCI-60 one-dose screen, 48 h
Conditions: 10 µM unless noted
The panel holds about 83,000 compounds, 20% with a hit somewhere; the sample as a whole holds those more often. Calls of active or inactive are those of the source. The calls were made as follows: active = growth percent below 10; inactive = the rest.
Hello, when you answer, please use one of the following outcomes: label 1 = active, label 0 = inactive

Observe how each entry below is paired with its result.
{"molecule": "O=C(CCOCCNC(=O)COc1ccc2c(c1)OCC(c1ccc(F)cc1)C2=O)NCCCC(O)(P(=O)(O)O)P(=O)(O)O (centres undefined)", "qualitative_label": "label 0"}
{"molecule": "O=C(N/N=C/[C@H](O)[C@@H](O)[C@@H](O)[C@H](O)CO)c1ccc(NC(=O)c2cccnc2)cc1", "qualitative_label": "label 0"}

stdin: Short answer needed: outcome of this test for "O=C1c2cccc3cccc(c23)C(=O)N1N1C(=O)c2cccc3c(NC4CCCCC4)ccc(c23)C1=O" ?
stdout: label 0

stdin: Tell me the recorded outcome of this test for O=C1c2ccccc2NC(n2sc3ccccc3c2=O)N1c1ccccc1 (centres undefined) .
stdout: label 0

stdin: Tell me the assay call for NCCOc1ncccc1/C=C1\C2C=CC=CC2C2C=CC(F)=CC12 (centres undefined) please.
stdout: label 0

stdin: State the result this test recorded for NC1=C(c2nn[nH]n2)C(c2ccccc2Cl)c2ccc3ccccc3c2O1 (centres undefined) .
stdout: label 0

stdin: Hi, do you know how Cc1cc(O)c(C2=NN(c3ccc(S(N)(=O)=O)cc3)C(/C=C/c3ccccc3)C2)cc1Cl (centres undefined) came out in this test?
stdout: label 0

stdin: Hi, sorry to bother you, what did the test record for "Cc1cc2nc3ccc(N=Nc4ccc(N(C)C)cc4)cc3n(-c3ccccc3)c-2cc1=N" ?
stdout: label 1

stdin: For this molecule, state the assay outcome: COc1ccc(C2CC(c3ccc(Nc4nc(Nc5ccc(F)cc5)nc(Nc5ccc(Cl)cc5)n4)cc3)=NN2C(C)=O)cc1 (centres undefined)
stdout: label 0

----------
Test system: SF-295 CNS
Experiment: NCI-60 one-dose screen, 48 h (100 = growth as untreated, 0 = no growth, -100 = all killed)
Settings: 10 µM unless noted
Compounds without any hit were thinned out: in the full panel of roughly 83,000, 20% have a hit.
The label depends only on growth: Met if it is at least 60%, Not met if it is smaller.

Illustrative cases are given below, each with its answer.
{"molecule": "Cn1cc(-c2cc3ncnc(Nc4ccc(CC(=O)Nc5cc(C(C)(C)C)nn5C)cc4)c3s2)cn1", "qualitative_label": "Not met"}
{"molecule": "CC/C=C\\C[C@@H](O)C/C=C1/C(=O)C=C[C@H]1C/C=C\\CCCC(=O)OC", "qualitative_label": "Met"}
{"molecule": "CCCCn1c(-c2ccc(-c3nc(-c4ccc(Cl)cc4)no3)cc2)nc(-c2ccccc2)c1-c1ccccc1", "qualitative_label": "Met"}

Here is the next item to consider.
stdin: Is growth for CCN1C(=O)N(CC)C2Nn3c(s/c(=C4\C(=O)N(CCC(C)C)c5ccccc54)c3=O)=NC21 (centres undefined) at or above 60%?
stdout: Met

----------
Test system: HT29 colon
Experiment: NCI-60 one-dose screen, 48 h
Settings: 10 µM unless noted
The panel holds about 83,000 compounds, 20% with a hit somewhere; the sample as a whole holds those more often. Active and inactive are the calls of the source. Rule for the calls: active = growth percent below 10; inactive = the rest.
Permitted responses: active, inactive

{"compound": "CCN(CC)Cc1cc(Nc2c3ccc(Cl)cc3nc3ccc(OC)cc23)ccc1O", "qualitative_label": "inactive"}
{"compound": "CCCCCCNC(=O)Oc1ccc(/C(=C(\\C)c2ccc(OC)cc2)c2ccc(OCCN3CCCCC3)cc2)cc1", "qualitative_label": "active"}
{"compound": "O=c1c2cc(F)ccc2sc2c(N3CCNCC3)nc3ccc(F)cc3c12", "qualitative_label": "active"}
{"compound": "O=C(/C=C/c1cccc2ccccc12)c1ccc(NC(=O)c2ccccc2CN2C(=O)c3ccccc3C2=O)cc1", "qualitative_label": "inactive"}
{"compound": "Cc1cc(=O)oc2cc(OC(=O)N3CCN(C)CC3)ccc12", "qualitative_label": "inactive"}

stdin: Test call, this compound: CN(C(=O)NCc1cccc(F)c1Cl)[C@H](COC(=O)Nc1cc2ccccc2cn1)CC(O)CO (some centres not stated)
stdout: inactive

stdin: Hello, I am checking results. What call was entered for "COc1cc2cc(Oc3ccc(NC(=O)Nc4ccc(Cl)c(C(F)(F)F)c4)cc3)c(C)nc2cc1OCCN1CCOCC1" ?
stdout: inactive

----------
System: U251 CNS
Assay: NCI-60 one-dose screen, 48 h (100 = growth as untreated, 0 = no growth, -100 = all killed)
Details: 10 µM unless noted
Experimental: Growth inhibition of the U251 human tumor cell line is measured as a screen for anti-cancer activity. Cells are grown in 96 well plates and exposed to the test compound for 48 hours. Compounds are tested at a single concentration, which is 10^-5 M for most compounds. The reported endpoint is percent growth (GI% or GIPRCNT), where numbers from 0 - 100% represent growth inhibition, and numbers from -100% - 0 represent cell death. For example, a value of 40 represents 60% growth inhibition. […]
The panel holds about 83,000 compounds, 20% with a hit somewhere; the sample as a whole holds those more often.
Could you please report measured growth for the items listed next?
Answers are plain numbers, in %.

Field: example entries. Status: answers known.
{"compound": "COc1ccc2c(c1)C(C)Cc1c(ncnc1-n1c(C)nc3ccccc31)N2C (stereo not given)", "experimental_endpoint": "growth", "quantitative_result": 25.6}
{"compound": "O=C(S)CNC(=O)c1ccccc1", "experimental_endpoint": "growth", "quantitative_result": 95.3}

# map each compound to its growth
1. c1cc(-c2nnc(SSc3ncnc4nc[nH]c34)o2)ccn1
2. COc1cc2cc(Oc3ccc(NC(=O)Nc4ccc(Cl)c(C(F)(F)F)c4)cc3)c(C)nc2cc1OCCN1CCOCC1
3. Cc1cc(Cl)ccc1NS(=O)(=O)c1ccc(-c2cnc(C3CC3)o2)cc1
4. Cc1ccc(-c2nc(N3CCN(C(=O)Nc4ccc(Cl)c(C(F)(F)F)c4)CC3)c3ccccc3n2)cc1
5. Cc1ccc(-c2nc(N3CCN(CC(=O)Nc4ccc(Cl)c(C(F)(F)F)c4)CC3)c3ccccc3n2)cc1

stdout:
[72.4, 14.8, 24.8, 79.6, 93.2]

----------
Test system: SNB-19 CNS
Assay: NCI-60 one-dose screen, 48 h (100 = growth as untreated, 0 = no growth, -100 = all killed)
Conditions: 10 µM unless noted
About 83,000 compounds went through this panel and 20% of them were active in at least one assay; those are over-represented in the sample as a whole.
experimental_endpoint: growth (%)
One number for each entry, in %.

{"molecule": "C[C@]12CC[C@@H]3c4cc(OC(F)F)c(OS(N)(=O)=O)cc4CC[C@H]3[C@@H]1CC[C@@H]2O", "growth [%]": 48.4}

# return growth for each item in the list
1. CN1C(=C2C(=O)OC(C)(C)OC2=O)CCC1C(=O)NCc1ccc(Cl)cc1Cl (stereo not given)
2. CCOC(=O)c1cnn2c3ccccc3n(S(=O)(=O)c3ccc(OC)cc3)c12
3. CN(C)CC#Cc1ccc2ncc(C#N)c(Nc3ccc(F)c(Cl)c3)c2c1
4. C/C(=C(/c1ccccc1)c1ccc(N2C(=O)c3cccc4c(N5CCN(C)CC5)ccc(c34)C2=O)cc1)c1ccccc1

stdout:
[97.7, 27.5, 76.4, 88.9]

Quick one: give me growth for each item below, same order please.
1. O=c1c2cc(F)ccc2sc2c(NCCO)nc3ccccc3c12
2. c1ccc2cc(C[n+]3ccn(CCCCCCCCCCCCn4cc[n+](Cc5ccc6ccccc6c5)c4)c3)ccc2c1
3. Clc1ccc(C(/C=C/c2sc(Cl)nc2Cl)=N/Nc2cc(Cl)cc(Cl)c2)cc1
4. COc1cc(C(=O)N2N=C(c3ccc(S(C)(=O)=O)cc3)CC2c2ccco2)cc(OC)c1OC (stereo not given)
5. O=C(S)CNC(=O)c1ccccc1

stdout:
[94, -80.5, 96.4, 75.9, 94.9]

----------
I'd be grateful if you could share measured growth for these entries.
System: TK-10 renal
Test: NCI-60 one-dose screen, 48 h (100 = growth as untreated, 0 = no growth, -100 = all killed)
Details: 10 µM unless noted
This is part of a sample that, as a whole, favours compounds with a hit. Of some 83,000 tested, about 20% had one in any assay. Calls of active or inactive are those of the source. Rule for the calls: active = growth percent below 10; inactive = the rest.

{"compound": "N#Cc1cccc(NC(=O)c2cc(-c3ccc(F)cc3F)ccc2O)c1", "system": "TK-10 renal", "growth": "21.9% (inactive)"}
{"compound": "C(=N/Nc1ncnc2nc[nH]c12)/c1ccccn1", "system": "TK-10 renal", "growth": "56.1% (inactive)"}
{"compound": "CC(=O)N1N=C(c2ccc(Nc3nc(Nc4ccc(F)cc4)nc(Nc4ccc(Cl)cc4)n3)cc2)CC1c1ccc(Cl)cc1 (stereo unspecified)", "system": "TK-10 renal", "growth": "110% (inactive)"}
{"compound": "O=c1c2cc(F)ccc2sc2c(NCCCNCCO)nc3ccccc3c12", "system": "TK-10 renal", "growth": "41% (inactive)"}
{"compound": "CSc1nc2ccc(C)cc2cc1/C=N/O", "system": "TK-10 renal", "growth": "101% (inactive)"}

Parameters: items (list). Returns: growth for each item.
1. COc1cccc(Oc2ccccc2NC(=O)CNC(=O)c2cccc3ccccc23)c1
2. Cc1nc2ccccc2n1-c1ncnc2c1CC(C)c1ccccc1N2C (stereo unspecified)
3. CCCCOc1nc2c(C)cccc2cc1-c1cc(-c2ccc(Cl)cc2)nc(-c2ccc(Cl)cc2)c1
4. Fc1cc(-c2nnc3sc(-c4ccc(Cl)cc4Cl)nn23)c(Cl)cc1Cl
5. NS(=O)(=O)c1ccc(-n2nc(C(=O)N/N=C\c3ccc(F)cc3)cc2-c2ccc(Br)cc2)cc1

stdout:
1. 58.5% [5 µM] (inactive)
2. 97.4% (inactive)
3. 108% (inactive)
4. 109% (inactive)
5. 121% (inactive)

Per the records, this compound ( "NC(=O)C1(Nc2ccc(Br)cc2)CCCC1" ) has growth equal to 104% (inactive)
